Listing of entries alongside the reported Emax.
biological target: CatSper (Homo sapiens, UniProt Q7RTX7+Q86XQ3+Q8NEC5+Q96P56); assay: Human sperm calcium influx assay, activation; format: cell-based; details: read-out: Emax, %, Steroid Alone

compound | Emax, %
CC(=O)[C@H]1CC[C@H]2[C@@H]3C[C@@H]4O[C@@]45CC(=O)CC[C@]5(C)[C@H]3CC[C@]12C [compound 16, 5α,6α-epoxypregnan-3,20-dione] | 83
CC(=O)[C@@]1(O)CC[C@H]2[C@@H]3CCC4=CC(=O)CCC4=C3[C@@H](c3ccc(N(C)C)cc3)C[C@@]21C [compound 32, ulipristal] | 106
CC(=O)C1(O)CCC2C3CCC4=CC(=O)CCC4(C)C3CCC21C (stereo not drawn) [compound 25, 17α-hydroxyprogesterone] | 115
CC(=O)[C@H]1CC[C@H]2[C@@H]3C[C@@H](C)[C@@]4(O)CC(=O)CC[C@]4(C)[C@H]3CC[C@]12C [compound 22, 5α-hydroxy-6β-methylpregnan-3,20-dione] | 95
C[C@]12CCC(=O)C=C1[C@@H]1C[C@@H]1[C@H]1[C@@H]3[C@@H]4C[C@@H]4[C@@]4(CCC(=O)O4)[C@@]3(C)CC[C@@H]12 [compound 31, drospirenone] | 115
CC(=O)O[C@]1(C(C)=O)CC[C@H]2[C@@H]3CCC4=CC(=O)CCC4=C3[C@@H](c3ccc(N(C)C)cc3)C[C@@]21C [compound 34, ulipristal acetate] | 27

====

molecular target: CatSper (Homo sapiens, UniProt Q7RTX7+Q86XQ3+Q8NEC5+Q96P56); assay: Human sperm calcium influx assay, activation; type: cell-based; settings: percent of response to saturating PROG (3 µM)
measurement type: Emax, %, Steroid Alone (%)

molecule | target system | numeric result
CC(=O)[C@H]1CC[C@H]2[C@@H]3CC[C@@H]4C[C@@H](O)CC[C@]4(C)[C@H]3CC[C@]12C | CatSper (Homo sapiens, UniProt Q7RTX7+Q86XQ3+Q8NEC5+Q96P56) | 92
CC(=O)[C@H]1CC[C@H]2[C@@H]3CC[C@H]4C[C@H](O)CC[C@]4(C)[C@H]3CC[C@]12C | CatSper (Homo sapiens, UniProt Q7RTX7+Q86XQ3+Q8NEC5+Q96P56) | 85
CC(=O)[C@H]1CC[C@H]2[C@@H]3CC[C@H]4C[C@@H](O)CC[C@]4(C)[C@H]3CC[C@]12C | CatSper (Homo sapiens, UniProt Q7RTX7+Q86XQ3+Q8NEC5+Q96P56) | 99
C[C@@H]1CC2=CC(=O)CC[C@@H]2[C@@H]2[C@@H]1[C@@H]1CC[C@H](O)[C@@]1(C)C[C@@H]2C | CatSper (Homo sapiens, UniProt Q7RTX7+Q86XQ3+Q8NEC5+Q96P56) | 80
CC(=O)[C@H]1CC[C@H]2[C@@H]3CC[C@H]4CC(=O)CC[C@]4(C)[C@H]3CC[C@]12C [compound 15, 5β-dihydroprogesterone] | CatSper (Homo sapiens, UniProt Q7RTX7+Q86XQ3+Q8NEC5+Q96P56) | 95
CC(=O)[C@H]1CC[C@H]2[C@@H]3CC[C@H]4CC(=O)CC[C@]4(C)[C@H]3CC[C@]12C [compound 14, 5α-dihydroprogesterone] | CatSper (Homo sapiens, UniProt Q7RTX7+Q86XQ3+Q8NEC5+Q96P56) | 87

====

Property: Emax; scope: individual molecules
biological target: CatSper (Homo sapiens, UniProt Q7RTX7+Q86XQ3+Q8NEC5+Q96P56); assay: Human sperm calcium influx assay, activation; format: cell-based; conditions: read-out: Emax, %, Steroid Alone

molecule | Emax, %
CC(=O)[C@H]1CC[C@H]2[C@@H]3C[C@H]4O[C@]45CC(=O)CC[C@]5(C)[C@H]3CC[C@]12C | 84
CC#C[C@]1(O)CC[C@H]2[C@@H]3CCC4=CC(=O)CCC4=C3[C@@H](c3ccc(N(C)C)cc3)C[C@@]21C [compound 33, mifepristone (RU-486)] | 109
CC(=O)[C@H]1CC[C@H]2[C@@H]3CCC4=CC(=O)CC[C@]4(C)[C@H]3CC[C@]12C | 111

====

target: CatSper (Homo sapiens, UniProt Q7RTX7+Q86XQ3+Q8NEC5+Q96P56); assay: Human sperm calcium influx assay, activation; format: cell-based; settings: pEC50, calcium influx, Steroid Alone, human sperm; mean ±SD

molecule | qual | EC50 [nM]
CC(=O)O[C@]1(C(C)=O)CC[C@H]2[C@@H]3CCC4=CC(=O)CCC4=C3[C@@H](c3ccc(N(C)C)cc3)C[C@@]21C [compound 34, ulipristal acetate] | > | 10000
CC(=O)[C@H]1CC[C@H]2[C@@H]3CCC4=CC(=O)CC[C@]4(C)[C@H]3[C@@H](O)C[C@]12C [compound 23, 11β-hydroxyprogesterone] | = | 18.6
CC(=O)[C@H]1CC[C@H]2[C@@H]3C[C@H]4O[C@]45CC(=O)CC[C@]5(C)[C@H]3CC[C@]12C [compound 17, 5β,6β-epoxypregnan-3,20-dione] | = | 417
C[C@]12CC[C@@H]3c4ccc(O)cc4CC[C@H]3[C@@H]1CC[C@@H]2O [compound 37, 17β-estradiol] | = | 295
CCCCC[C@H](O)/C=C/[C@H]1[C@H](O)CC(=O)[C@@H]1CCCCCCC(=O)O [compound 2, prostaglandin E1] | = | 3.98
CC(=O)[C@H]1CC[C@H]2[C@@H]3C[C@@H]4O[C@@]45CC(=O)CC[C@]5(C)[C@H]3CC[C@]12C [compound 16, 5α,6α-epoxypregnan-3,20-dione] | = | 832

====

Measured fold less potent than PROG (calcium influx), listed per entry.
target: CatSper (Homo sapiens, UniProt Q7RTX7+Q86XQ3+Q8NEC5+Q96P56); assay: Human sperm calcium influx assay, activation; assay type: cell-based; conditions: relative to PROG
measurement type: fold less potent than PROG (calcium influx) (fold)

compound | target system | scale unit | qual | numeric result
C[C@]12CC[C@@H](O)C[C@@H]1CC[C@@H]1[C@@H]2CC[C@]2(C)[C@@H](C(=O)CO)CC[C@@H]12 | CatSper (Homo sapiens, UniProt Q7RTX7+Q86XQ3+Q8NEC5+Q96P56) | fold | ≥ | 240
CC(=O)[C@H]1CC[C@H]2[C@@H]3CCC4=CC(=O)CC[C@]4(C)[C@H]3[C@H](O)C[C@]12C [compound 24, 11α-hydroxyprogesterone] | CatSper (Homo sapiens, UniProt Q7RTX7+Q86XQ3+Q8NEC5+Q96P56) | fold | = | 35
CC(=O)[C@H]1[C@H](O)C[C@H]2[C@@H]3CCC4=CC(=O)CC[C@]4(C)[C@H]3CC[C@@]21C [compound 28, 16α-hydroxyprogesterone] | CatSper (Homo sapiens, UniProt Q7RTX7+Q86XQ3+Q8NEC5+Q96P56) | fold | = | 46
CC(=O)[C@H]1CC[C@H]2[C@@H]3CCC4=CC(=O)CC[C@]4(C)[C@H]3[C@@H](O)C[C@]12C [compound 23, 11β-hydroxyprogesterone] | CatSper (Homo sapiens, UniProt Q7RTX7+Q86XQ3+Q8NEC5+Q96P56) | fold | = | 5

====

biological target: CatSper (Homo sapiens, UniProt Q7RTX7+Q86XQ3+Q8NEC5+Q96P56); assay: Human sperm calcium influx assay, activation; format: cell-based; conditions: human sperm; mean ±SD
# key: entry, value: pEC50, calcium influx, Steroid Alone

compound | pEC50, calcium influx, Steroid Alone
CC(=O)[C@H]1CC[C@H]2[C@@H]3CC[C@H]4C[C@@H](O)CC[C@]4(C)[C@H]3CC[C@]12C [compound 12, 3β,5α-pregnanolone] | 7.16
C[C@@H]1CC2=CC(=O)CC[C@@H]2[C@H]2CC[C@]3(C)[C@@H](O)CC[C@H]3[C@@H]21 [compound 39, 7α-methyl-19-nortestosterone] | 6.25
CC(=O)[C@H]1CC[C@H]2[C@@H]3C[C@H](C)C4=CC(=O)CC[C@]4(C)[C@H]3CC[C@]12C [compound 20, 6α-methylprogesterone] | 6.16
CC(=O)[C@H]1CC[C@H]2[C@@H]3CC[C@H]4CC(=O)CC[C@]4(C)[C@H]3CC[C@]12C [compound 14, 5α-dihydroprogesterone] | 6.99
CC(=O)[C@H]1CC[C@H]2[C@@H]3CC[C@H]4CC(=O)CC[C@]4(C)[C@H]3CC[C@]12C [compound 15, 5β-dihydroprogesterone] | 6.87
CC(=O)[C@H]1CC[C@H]2[C@@H]3CCC4=CC(=O)C(C)(C)C[C@]4(C)[C@H]3CC[C@]12C [compound 18, 2,2-dimethylprogesterone] | 6.31
C[C@H]1C[C@]2(C)[C@@H](O)CC[C@H]2[C@@H]2CCC3=CC(=O)CC[C@@H]3[C@H]21 [compound 38, 11β-methyl-19-nortestosterone] | 6.37
C[C@]12CC[C@@H](O)C[C@H]1CC[C@@H]1[C@@H]2CC[C@]2(C)[C@@H](C(=O)CO)CC[C@@H]12 [compound 26, 3α,5β-THDOC] | 5.80

These data points were gathered from paper PMC8969127.
